test system: SNB-75 CNS; test: NCI-60 one-dose screen, 48 h (100 = growth as untreated, 0 = no growth, -100 = all killed); conditions: 10 µM unless noted
This is part of a sample that, as a whole, favours compounds with a hit. Of some 83,000 tested, about 20% had one in any assay.
Threshold 50%. growth below it: true (1). growth at it or above: false (0).

C[C@]12CC[C@H](O)CC1=CC[C@@H]1[C@@H]2CC[C@]2(C)C(=O)CC[C@@H]12 ... false (0)
COC1CC(CC2CCC(C)C(C(C)C(=O)O)O2)OC2(OC(C)(C3CCC(C)(C4OC(C5OC(O)(CO)C(C)CC5C)CC4C)O3)CC2C)C1C (stereo unspecified) ... true (1)
Oc1cc[c]([Hg][Cl])cc1 ... false (0)
CCC(=O)OC1CCn2c1nc1c2C(=O)C(C)=C(N2CC2)C1=O (stereo unspecified) ... true (1)
O=C1c2ccccc2C(=O)C(Cl)C1Cl (stereo unspecified) ... false (0)

Is it true that growth reported for C[C@H]1CCC/C=C/[C@@H]2C[C@H](O)C[C@H]2[C@H](O)/C=C/C(=O)O1 is less than 50%?
true (1)

Source: PubChem BioAssay (NCI)
